The entries that follow carry Ki values tested on Tissue-type plasminogen activator (Homo sapiens, UniProt P00750), drawn from several published reports.
Sequence (P00750 whole entry): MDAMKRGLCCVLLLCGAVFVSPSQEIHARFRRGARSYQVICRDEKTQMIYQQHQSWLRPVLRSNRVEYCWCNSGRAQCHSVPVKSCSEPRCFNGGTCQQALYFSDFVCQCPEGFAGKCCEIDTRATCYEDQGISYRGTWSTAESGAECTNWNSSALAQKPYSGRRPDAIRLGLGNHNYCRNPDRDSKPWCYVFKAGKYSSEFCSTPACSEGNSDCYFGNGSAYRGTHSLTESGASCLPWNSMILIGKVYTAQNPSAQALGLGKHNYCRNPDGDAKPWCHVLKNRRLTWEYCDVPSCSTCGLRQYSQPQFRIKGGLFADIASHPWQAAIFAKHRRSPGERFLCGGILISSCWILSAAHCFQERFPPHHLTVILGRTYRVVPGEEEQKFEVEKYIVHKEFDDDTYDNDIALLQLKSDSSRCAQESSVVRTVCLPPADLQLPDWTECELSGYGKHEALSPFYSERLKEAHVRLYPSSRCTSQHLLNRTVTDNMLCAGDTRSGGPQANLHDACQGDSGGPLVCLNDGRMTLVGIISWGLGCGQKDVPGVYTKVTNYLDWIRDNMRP
Give bare numbers, in µM.

Worked set:
Would you mind telling me what Ki value was observed for "COC(=O)Nc1ccc(-c2cc([C@H](Cc3ccccc3)NC(=O)/C=C/c3cc(Cl)ccc3-n3cnnn3)c(Cl)nn2)cc1" ?
0.994

Would you mind telling me what Ki value was observed for "N=C(N)c1ccc(O)c(CN2CC[C@H](NS(=O)(=O)c3cc4nc(Cl)ccc4s3)C2=O)c1" ?
2.7

Would you mind telling me what Ki value was observed for "N=C(N)Nc1ccccc1" ?
733

Would you mind telling me what Ki value was observed for Cl.NC1CCC(CNC(=O)[C@@H]2CCCN2C(=O)CC(C2CCCCC2)C2CCCCC2)CC1 (stereo not given in full) ?
84

Would you mind telling me what Ki value was observed for "NCCCC[C@H](NC(=O)CN(C(=O)CCc1ccccc1)C1CCCCC1)B(O)O" ?
1.1

Would you mind telling me what Ki value was observed for "N=C(N)Nc1nccc2c(Br)cccc12" ?
140

Would you mind telling me what Ki value was observed for "O=C1Cn2c(Cl)cnc(c2=O)N[C@@H](Cc2ccccc2)CNCCCCNCc2ccccc2CN1" ?
165

Would you mind telling me what Ki value was observed for "CC(=O)N[C@H](Cc1ccccc1)C(=O)N1CCC[C@H]1C(=O)N[C@@H](CCCN=C(N)N)B(O)O" ?
0.0057

Would you mind telling me what Ki value was observed for "Cc1cc2cc(N=C(NC#N)N[C@H]3CCCCN(CC(=O)N4CCCC4)C3=O)ccc2o1" ?
3.7

Would you mind telling me what Ki value was observed for "N=C(N)c1ccc2cc(C(=O)Nc3cccc(OC4CCCC4)c3)ccc2c1" ?
3.39

I would be grateful if you could provide Ki for each of the following entries.
1. CCC1CNCc2ccc(NC(=O)c3ccc4cc(C(=N)N)ccc4c3)cc21 (stereo not given)
2. [H]/N=C(\N)c1ccc2cc(C(=O)Nc3ccc(CN)cc3)ccc2c1
3. N=C(N)c1ccc(O)c(CN2CC[C@H](NS(=O)(=O)c3cc4cnccc4s3)C2=O)c1

1. 1.65
2. 58.4
3. 8.7
